FYI, the data here is from PubChem BioAssay (NCI).

Test system: DU-145 prostate
Experiment: NCI-60 one-dose screen, 48 h
Details: 10 µM unless noted
The panel holds about 83,000 compounds, 20% with a hit somewhere; the sample as a whole holds those more often. Active and inactive are the calls of the source. Rule for the calls: active = growth percent below 10; inactive = the rest.
# output must be one of 1 = active, -1 = inactive

Example entries and their recorded answers appear below.
{"compound": "COc1ccc(-c2nc(SCCC(C)C)nc(Nc3ccc(C(=O)O)cc3)c2C#N)cc1", "qualitative-label": -1}
{"compound": "Cc1nc(N)nc2c1CCC(Nc1ccccc1)S2 (stereo unspecified)", "qualitative-label": -1}
{"compound": "COc1ccc(C(=O)OC2C(OC3C(O)COC(O[C@H]4C[C@H]5[C@@H]6CC=C7C[C@@H](O)CC[C@]7(C)[C@H]6CC[C@]5(C)[C@H]4[C@H](C)C(=O)CCC(C)C)C3OC(N)=O)OCC(O)C2O)cc1 (stereo partly specified)", "qualitative-label": -1}
{"compound": "COc1ccc2nc(C)cc(Sc3nc4ccccc4s3)c2c1", "qualitative-label": -1}

As a next step, examine the compound that follows.
// query So what was the verdict on `COC(=O)[C@@H](Cc1c[nH]c2ccccc12)NC(=O)/C=C/c1ccccc1` in this test?
// result -1

----------
Task for the reader: assign each of the following compounds its reported growth.
Tested on: TK-10 renal
Experiment: NCI-60 one-dose screen, 48 h (100 = growth as untreated, 0 = no growth, -100 = all killed)
Settings: 10 µM unless noted
The panel holds about 83,000 compounds, 20% with a hit somewhere; the sample as a whole holds those more often.
Numbers only, in %.

Below: 10 compounds and their reported growth.
{"compound": "CC(C)CC(=O)C(CCc1ccccn1)C(C)C (stereo not drawn)", "growth, %": 102}
{"compound": "O=C1OCC2=C1C(c1ccccc1)c1cc3c(cc1N2CCO)OCO3 (stereo not drawn)", "growth, %": 63.4}
{"compound": "O=C1OCC2=C1C(c1ccccc1)c1cc3c(cc1N2CCO)CCC3 (stereo not drawn)", "growth, %": 54.5}
{"compound": "O=C1/C(=C/N2N=C(c3ccc(Cl)cc3)CC2c2ccccc2O)SC(=S)N1c1cccc(C(F)(F)F)c1 (stereo not drawn)", "growth, %": 78.3}
{"compound": "O=C(Nc1cccc(-n2ccc3c(NC(=O)c4ccccc4)nccc32)c1)c1ccc(N2CCOCC2)c(C(F)(F)F)c1", "growth, %": 6.82}
{"compound": "Clc1ccc(-c2nc(-c3cccs3)no2)cc1", "growth, %": 74.6}
{"compound": "O=C1Nc2ccc(Br)cc2/C1=N/c1nc(-c2ccccc2)cs1", "growth, %": 109}
{"compound": "COc1ccccc1CNCCCN1C(=O)c2ccc3c4c(ccc(c24)C1=O)C(=O)N(CCCCNCCCN)C3=O", "growth, %": 36.7}
{"compound": "COc1ccc(/C(C)=N/NC(=O)CSc2nc3ccccc3c(=O)n2CCc2ccc(S(N)(=O)=O)cc2)cc1", "growth, %": -39.8}
{"compound": "NC(N)=N/N=C/c1cccc(Cl)c1Cl", "growth, %": 88}

// for each compound below, give its growth
1. COc1cc(Nc2ncccc2/C=C/C(=O)c2cc(OC)c(OC)c(OC)c2)cc(OC)c1OC
2. COc1ccc(-c2cc(C(=O)Nc3ccc(Br)cc3)nc3[nH]c(=O)sc23)cc1
3. CC1OC(n2c3ccccc3c3c4c(c5c6ccccc6[nH]c5c32)C(=O)N(CCN2CCOCC2)C4=O)CC(O)C1O (stereo not drawn)
4. Clc1cc2nc(-c3ccccc3)c(-c3ccccc3)nc2cc1Cl

// result
121
19.9
58.5
123

// for each compound below, give its growth
1. C=C1C[C@@]2(C)C(CC[C@]3(C)C2CC=C2C4CC(C)(C)C[C@@H](OC(=O)/C(C)=C\C)[C@]4(C(=O)O)CC[C@]23C)C(C)(C)C1=O (stereo partly drawn)
2. COc1ccc(-c2cc(-c3cn(-c4cccc(Cl)c4)nc3-c3ccc(OC)cc3)[nH]c(=S)n2)cc1
3. c1cn2cc(-c3ccc4ncn(C5CCCCC5)c4c3)nc(-c3ccc4c(c3)ncn4C3CCCCC3)c2n1
4. COc1ccc(-c2conc2-n2nc(-c3ccccc3)nc2-c2ccccc2)cc1
5. OC(CCCCCCCCC(O)CN1CCc2ccccc2C1)CN1CCc2ccccc2C1 (stereo not drawn)

// result
1: 17.2; 2: 93.8; 3: -59.3; 4: 137; 5: 103
